# MEASUREMENT_NOTES: yeast display, Sf9 membrane polyspecificity reagent, FACS + sequencing; frameworks hold sequencing errors
RESULT_TYPE: polyreactivity (PSR sort gate)

>  <BIOPOLYMER_SEQUENCE>
QVQLVESRGGLVQAGGSLRLSCAASGSTFGWYAMGWYRQAPGKERELVASITSGGRTNYADSVKGRFTISRDNAKITVYLQMNSLKPEDTAVYYCAKRVYGSYSLYDYWGQGTQVNVSS

>  <RESULT_TYPE>
polyreactivity (PSR sort gate)

>  <VAL>
low polyreactivity

$$$$
>  <BIOPOLYMER_SEQUENCE>
QVQLVESGGGLVQAGGSLRLSCAASGSIFNYYTMGWYRQAPGKRELVAAITWSGDSTYYADSVKGRFTISRDNAKNTVYLQMNSLKPEDTAVYYCAAAQARRYYWGQGTQVTVSS

>  <RESULT_TYPE>
polyreactivity (PSR sort gate)

>  <VAL>
high polyreactivity

$$$$
>  <BIOPOLYMER_SEQUENCE>
QVQLVESGGGLVQAGGSLRLSCAASGRTFALYAMGWYRQAPGKERELVASISWRGGSTYYADSVKGRFTISRDNAKNTVYLQMNSLKPEDTAVYYCAADTWSYGPLNYRLEYWGQGTQVTVSS

>  <RESULT_TYPE>
polyreactivity (PSR sort gate)

>  <VAL>
low polyreactivity

$$$$
>  <BIOPOLYMER_SEQUENCE>
QDQLVESGGGLVQAGGSLRISCAASGSIFDVNAMGWYRQAPGKERELVAAISDSGGSTYYADSVKGRFTISRDNAKNTVYLEMNSLKPVDTAVYYCNADWSWYNYYDFDYWGQGTQVTVSS

>  <RESULT_TYPE>
polyreactivity (PSR sort gate)

>  <VAL>
low polyreactivity

$$$$
>  <BIOPOLYMER_SEQUENCE>
QVQLVESGGGLVQAGGSLRLSCAASGSTFNLYAMGWYRQAPGKERELVAAISDGDSSTYYADSVKGRFTISRDNAKNTVYLQMNSLKPEDTAVYYCNARDDVYLITPYFLVYVNLDYWGQGTQVTVSS

>  <RESULT_TYPE>
polyreactivity (PSR sort gate)

>  <VAL>
low polyreactivity

$$$$

Exercise: So what does the record say about polyreactivity (PSR sort gate) for QVQLVESGGGLVQAGGSLRLSCAASGGMGWYRQAPGKERELVATISSVGSTNYADSVKGRFTISRDNAKNTVYLQMNSLKPEDTAVYYCNANGVQYFLYGYWGQGTQVTVSS ?
Solution: low polyreactivity

Exercise: So what does the record say about polyreactivity (PSR sort gate) for QVQLVESGGGLVQAGGSLRLSCASSGSTFWPNAMGWYRQAPGKERELVAAITGGGGTNYADSVKGRFTISRDNAKNTVYLQMNSLKPEDTAVYYCAAKKVNSRSHVKYYYWGQGTQVTVSS ?
Solution: high polyreactivity

Exercise: So what does the record say about polyreactivity (PSR sort gate) for QVQLVESCGGLVQAGGSLRLSCAASGSTFINYAMGWYRQAPGKERELVAAYAYSVKGRFTISRDNAKITVYLQMKSLKPEDTAVYYCNAVTGDWGQGTQVTVSS ?
Solution: low polyreactivity

Exercise: So what does the record say about polyreactivity (PSR sort gate) for QVQLVESGGGLVQAGGSLRLSCAASGFTFLYYDMGWYRQAPGKERELVAAITSSGTSTYYADSVKGRFTISRDNAKNSVYLQMNSLKPEDTAVYYCAVMYTYAGRHRYGYWGQGTQVTVSS ?
Solution: high polyreactivity

Exercise: So what does the record say about polyreactivity (PSR sort gate) for QVQLVESGGGLVQAGGSLRLSCAASGRILARYAMGWYRQAPGKERELVAAITSRGGSTSYADSVKGRFTISRDNAKNTVYLQMNSLKPEDTAVYYCAKGERSANGGLFAGRHGYWGQGTQVTVSS ?
Solution: low polyreactivity

Exercise: So what does the record say about polyreactivity (PSR sort gate) for QVQLVESGGGLVQAGGSLRLSCAASGFTFYDYAMVWYRQAPGKERELVAGITSTGRTYYADSVKGRFTISRDNAKNTVYLQMNSLKPEDTAVYYCNARTLPNYYRRYDYWGQGTEVTVSS ?
Solution: high polyreactivity
